Please provide measured % inhibition for the entries that follow.
# System: human PKK mRNA
# MEASUREMENT_PROTOCOL: Antisense inhibition of human PKK mRNA in HepaRG cells, 1,000 nM, MOE/deoxy/cEt oligonucleotides (Example 3)
# Type: cell-based
# ASSAY_CONDITIONS: Table 22 experiment; HepaRG cells, electroporation with 1,000 nM antisense oligonucleotide, approx. 24 hours; PKK mRNA by RT-PCR (RTS3454), relative to untreated control cells
Strand notation (5' to 3'): a small letter for the sugar, then the base; units joined by * are phosphorothioate-linked, units joined directly phosphodiester-linked; [ ] holds rarer units or linkages, { } end groups; capitals alone tell only the bases. e = 2'-O-(2-methoxyethyl) (MOE); k = constrained ethyl (cEt); [5mC] = 5-methylcytosine; d = 2'-deoxy (DNA)
Could you give me the number in %? Just the number is fine.

Ask: Entry 547870 (antisense e[5mC]*eT*kA*dA*d[5mC]*d[5mC]*dT*dT*dA*dG*dA*d[5mC]*dA*k[5mC]*kA*eT) [compound 547870] has what % inhibition?
Reply: 83

Ask: Entry 547843 (antisense e[5mC]*eA*k[5mC]*dT*dT*dA*dT*dT*dT*dG*dA*dT*dG*kA*k[5mC]*e[5mC]) [compound 547843] has what % inhibition?
Reply: 83

Ask: Entry 547877 (antisense eA*eA*k[5mC]*dA*d[5mC]*dT*dG*d[5mC]*dT*dA*dA*d[5mC]*d[5mC]*kT*kT*eA) [compound 547877] has what % inhibition?
Reply: 93

Ask: Entry 547862 (antisense eG*eA*k[5mC]*dT*d[5mC]*d[5mC]*dT*d[5mC]*dT*d[5mC]*dA*dT*dA*kT*k[5mC]*eA) [compound 547862] has what % inhibition?
Reply: 88

Ask: Entry 547902 (eA*e[5mC]*kT*dG*dT*dA*d[5mC]*dT*dT*dT*dA*dA*dT*kA*kG*eG; antisense) [compound 547902] has what % inhibition?
Reply: 33

Ask: Entry 547906 (eT*eT*kA*d[5mC]*dT*d[5mC]*dA*dG*d[5mC]*dA*d[5mC]*d[5mC]*dT*kT*kT*eA; antisense) [compound 547906] has what % inhibition?
Reply: 70

Ask: Entry 547914 (eG*eG*k[5mC]*dA*dA*d[5mC]*dA*dT*d[5mC]*d[5mC]*dA*d[5mC]*dA*kT*k[5mC]*eT; antisense) [compound 547914] has what % inhibition?
Reply: 63

Ask: Entry 547851 (antisense eT*eA*kA*dA*dT*dG*dT*d[5mC]*dT*d[5mC]*dG*dA*dT*kG*kG*e[5mC]) [compound 547851] has what % inhibition?
Reply: 84

Ask: Entry 547845 (antisense e[5mC]*eG*kA*dT*dG*dG*d[5mC]*dA*dA*dG*d[5mC]*dA*d[5mC]*kT*kT*eA) [compound 547845] has what % inhibition?
Reply: 64

Ask: Entry 547849 (antisense eA*eA*kT*dG*dT*d[5mC]*dT*d[5mC]*dG*dA*dT*dG*dG*k[5mC]*kA*eA) [compound 547849] has what % inhibition?
Reply: 90

Ask: Entry 547861 (antisense eA*e[5mC]*kT*d[5mC]*d[5mC]*dT*d[5mC]*dT*d[5mC]*dA*dT*dA*dT*k[5mC]*kA*eA) [compound 547861] has what % inhibition?
Reply: 57

Ask: Entry 547876 (antisense eA*e[5mC]*kA*d[5mC]*dT*dG*d[5mC]*dT*dA*dA*d[5mC]*d[5mC]*dT*kT*kA*eG) [compound 547876] has what % inhibition?
Reply: 59

Ask: Entry 547864 (antisense eT*eT*kG*dA*d[5mC]*dT*d[5mC]*d[5mC]*dT*d[5mC]*dT*d[5mC]*dA*kT*kA*eT) [compound 547864] has what % inhibition?
Reply: 73

Ask: Entry 547893 (eG*e[5mC]*kA*dA*dT*dT*dG*dT*dT*d[5mC]*d[5mC]*dG*dG*kT*kA*e[5mC]; antisense) [compound 547893] has what % inhibition?
Reply: 80

----------
# Tested on: human PKK mRNA
# MEASUREMENT_PROTOCOL: Antisense inhibition of human PKK mRNA in HepaRG cells, 1,000 nM, MOE/deoxy/cEt oligonucleotides (Example 3)
# Assay type: cell-based
# ASSAY_CONDITIONS: Table 21 experiment; HepaRG cells, electroporation with 1,000 nM antisense oligonucleotide, approx. 24 hours; PKK mRNA by RT-PCR (RTS3454), relative to untreated control cells
Strand notation (5' to 3'): a small letter for the sugar, then the base; units joined by * are phosphorothioate-linked, units joined directly phosphodiester-linked; [ ] holds rarer units or linkages, { } end groups; capitals alone tell only the bases. e = 2'-O-(2-methoxyethyl) (MOE); k = constrained ethyl (cEt); [5mC] = 5-methylcytosine; d = 2'-deoxy (DNA)
REPORTED_PROPERTY: % inhibition (%)
Could you give me the number in %? Just the number is fine.

Ask: Entry 547769 (antisense eT*eT*kG*dG*dA*dG*dG*dT*dG*dA*dG*dT*d[5mC]*kT*k[5mC]*eT) [compound 547769] has what % inhibition?
Reply: 81

Ask: Entry 531231 (eT*eA*eT*e[5mC]*eA*d[5mC]*dT*dG*dT*dA*d[5mC]*dT*dA*dG*dT*eT*eT*e[5mC]*e[5mC]*eT) [compound 531231] has what % inhibition?
Reply: 62

Ask: Entry 547803 (eT*eG*kT*dA*d[5mC]*dA*dT*dG*dG*dA*dA*dG*d[5mC]*kT*kA*e[5mC]; antisense) [compound 547803] has what % inhibition?
Reply: 0

----------
# Tested on: human PKK mRNA
# MEASUREMENT_PROTOCOL: Dose-dependent antisense inhibition of human PKK in HepaRG cells, 0.19-5.00 uM (Example 5)
# Format: cell-based
# ASSAY_CONDITIONS: 0.56 μM, HepaRG cells, electroporation, approximately 16 hours; Table 39
Strand notation (5' to 3'): a small letter for the sugar, then the base; units joined by * are phosphorothioate-linked, units joined directly phosphodiester-linked; [ ] holds rarer units or linkages, { } end groups; capitals alone tell only the bases. e = 2'-O-(2-methoxyethyl) (MOE); [5mC] = 5-methylcytosine; d = 2'-deoxy (DNA)
Please provide measured percent inhibition of PKK at 0.56 μM for the entries that follow.
Could you give me the number in %? Just the number is fine.

Ask: Entry 531231 (eT*eA*eT*e[5mC]*eA*d[5mC]*dT*dG*dT*dA*d[5mC]*dT*dA*dG*dT*eT*eT*e[5mC]*e[5mC]*eT) [compound 531231] has what percent inhibition of PKK at 0.56 μM?
Reply: 39

Ask: Entry 547632 (antisense eT*e[5mC]*eA*e[5mC]*eT*dG*dT*d[5mC]*d[5mC]*dT*dA*dT*dA*dT*d[5mC]*eA*e[5mC]*eT*e[5mC]*eT) [compound 547632] has what percent inhibition of PKK at 0.56 μM?
Reply: 47

Ask: Entry 546870 (e[5mC]*eT*eG*eT*eA*d[5mC]*d[5mC]*dT*dA*dT*dA*dA*d[5mC]*dT*d[5mC]*eT*eA*eA*e[5mC]*eA; antisense) [compound 546870] has what percent inhibition of PKK at 0.56 μM?
Reply: 42

Ask: Entry 546876 (eG*eT*e[5mC]*e[5mC]*eT*dA*dT*dA*dT*d[5mC]*dA*d[5mC]*dT*dG*dT*eA*e[5mC]*e[5mC]*eT*eG; antisense) [compound 546876] has what percent inhibition of PKK at 0.56 μM?
Reply: 50

----------
# Tested on: human PKK mRNA
# MEASUREMENT_PROTOCOL: Antisense inhibition of human PKK mRNA in HepaRG cells, 1,000 nM, MOE/deoxy/cEt oligonucleotides (Example 3)
# Format: cell-based
# ASSAY_CONDITIONS: Table 27; HepaRG cells, 1,000 nM antisense oligonucleotide; human PKK mRNA
Strand notation (5' to 3'): a small letter for the sugar, then the base; units joined by * are phosphorothioate-linked, units joined directly phosphodiester-linked; [ ] holds rarer units or linkages, { } end groups; capitals alone tell only the bases. e = 2'-O-(2-methoxyethyl) (MOE); k = constrained ethyl (cEt); [5mC] = 5-methylcytosine; d = 2'-deoxy (DNA)
Rule: % inhibition under 30% gives false, otherwise true.

Ask: Item 548380 (eG*e[5mC]*k[5mC]*d[5mC]*dA*dG*dT*dT*dT*dT*dG*dG*d[5mC]*kA*kA*e[5mC]; antisense) [compound 548380] with % inhibition of 30% or above?
Reply: false

Ask: Item 548381 (e[5mC]*e[5mC]*k[5mC]*dA*d[5mC]*dT*dA*d[5mC]*d[5mC]*dA*dT*dT*dT*kG*kG*eG; antisense) [compound 548381] with % inhibition of 30% or above?
Reply: false

Ask: Item 548332 (antisense eG*eA*kT*dG*dA*dA*dA*dT*dG*dT*dG*d[5mC]*dA*k[5mC]*k[5mC]*eT) [compound 548332] with % inhibition of 30% or above?
Reply: true

Ask: Item 548350 (antisense eG*e[5mC]*kG*d[5mC]*dT*dA*dA*d[5mC]*d[5mC]*dT*d[5mC]*dA*dT*kA*kA*eA) [compound 548350] with % inhibition of 30% or above?
Reply: false

Ask: Item 548344 (antisense eG*eG*k[5mC]*dA*dA*d[5mC]*dT*dA*dT*dG*dT*dT*d[5mC]*kT*k[5mC]*eA) [compound 548344] with % inhibition of 30% or above?
Reply: true
